target.under.test: stearoyl-CoA desaturase (SCD) (Mus musculus, UniProt P13516)
Construct: Reactions are started by adding 2 mg of microsomal protein; from tissue; host or cells: liver microsomes of male ICR mice on a high-carbohydrate, low fat diet
Sequence (P13516 whole entry): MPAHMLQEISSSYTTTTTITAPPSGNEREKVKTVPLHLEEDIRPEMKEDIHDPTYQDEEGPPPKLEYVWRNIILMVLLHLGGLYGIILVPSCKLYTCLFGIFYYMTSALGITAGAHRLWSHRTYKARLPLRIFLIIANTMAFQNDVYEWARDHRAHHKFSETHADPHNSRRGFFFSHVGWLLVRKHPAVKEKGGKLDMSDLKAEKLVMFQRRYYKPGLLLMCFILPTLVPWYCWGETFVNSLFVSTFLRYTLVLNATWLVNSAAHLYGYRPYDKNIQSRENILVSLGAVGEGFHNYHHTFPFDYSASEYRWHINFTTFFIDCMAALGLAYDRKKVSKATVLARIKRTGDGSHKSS
assay.text: HTS microsomal assay of stearoyl-CoA desaturase inhibition using mouse liver microsomes
Assay type: biochemical
run.conditions: % SCD enzyme activity remaining at 10 μM test compound
endpoint.name: Mouse microsome SCD activity % remaining @ 10 μM

# example entries with known answers
INSERT INTO measurements (substance_smiles, reported_value) VALUES
  ('O=C(NCCC1CC1)c1ccc(N2CCN(Cc3cc(F)ccc3C(F)(F)F)CC2)nn1', '3%'),
  ('CC(C)CCNC(=O)c1ccc(N2CCN(C(=O)c3cnn(C)c3C(F)(F)F)CC2)nn1', '15%');

Now for a further molecule.
The recorded Mouse microsome SCD activity % remaining @ 10 μM for O=C(NCCC1CC1)c1ccc(N2CCN(Cc3ccccc3C(F)(F)F)CC2)nn1 is 12%

Cited source for all entries: patent US20110021530A1
